Let's go through some IC50 measurements on UniProt:P15541 together.
Sequence (P15541 whole entry, looked up): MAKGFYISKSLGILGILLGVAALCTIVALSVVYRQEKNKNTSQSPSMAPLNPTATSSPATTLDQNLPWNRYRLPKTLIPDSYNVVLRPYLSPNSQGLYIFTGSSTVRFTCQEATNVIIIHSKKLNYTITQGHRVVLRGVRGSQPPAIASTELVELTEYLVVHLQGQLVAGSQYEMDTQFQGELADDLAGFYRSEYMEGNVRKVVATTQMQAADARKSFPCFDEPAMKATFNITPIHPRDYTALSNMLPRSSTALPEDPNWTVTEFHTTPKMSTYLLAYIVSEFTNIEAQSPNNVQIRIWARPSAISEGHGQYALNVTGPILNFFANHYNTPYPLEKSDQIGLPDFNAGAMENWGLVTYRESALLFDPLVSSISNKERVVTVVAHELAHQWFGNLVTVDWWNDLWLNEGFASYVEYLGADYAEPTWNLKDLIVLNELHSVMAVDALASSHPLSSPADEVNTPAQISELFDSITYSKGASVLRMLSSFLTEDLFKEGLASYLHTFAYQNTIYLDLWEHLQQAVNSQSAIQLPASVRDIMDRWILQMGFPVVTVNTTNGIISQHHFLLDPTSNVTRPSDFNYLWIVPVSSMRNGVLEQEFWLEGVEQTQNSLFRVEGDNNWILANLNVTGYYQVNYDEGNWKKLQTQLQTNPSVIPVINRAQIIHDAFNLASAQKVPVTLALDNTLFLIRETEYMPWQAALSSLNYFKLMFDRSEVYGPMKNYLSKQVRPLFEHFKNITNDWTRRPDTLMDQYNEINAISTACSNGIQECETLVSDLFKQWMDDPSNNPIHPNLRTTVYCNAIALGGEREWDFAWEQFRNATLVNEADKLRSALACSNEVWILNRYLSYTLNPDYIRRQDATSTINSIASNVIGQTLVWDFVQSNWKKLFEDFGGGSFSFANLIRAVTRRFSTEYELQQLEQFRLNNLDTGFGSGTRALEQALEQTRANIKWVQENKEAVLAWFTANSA
READOUT KIND: IC50 (µM)

a. C[C@H](NC(=O)[C@@H](CC(=O)NO)Cc1ccccc1)C(=O)O (racemic)
b. O=CN(O)C(Cc1ccccc1)C(=O)NCC(=O)O (stereo not drawn)
c. O=C(O)CNC(=O)C(Cc1ccccc1)C(=O)NO (racemic)
Input: Reorder the items by IC50, least to greatest. In plain terms: list the labels in the order you were asked to.
Output: a, b, c
(a: 0.71 µM, b: 25 µM, c: 100 µM)

The measurements presented in this section are drawn from BindingDB's records for doi:10.1021/jm00147a007.
